test system: Chenopodium album; test: Test Example 3: herbicidal effect test by treatment of dry field farming soil (one day after seeding); format: in vivo; settings: 120 g/10a active ingredient, evaluated 14 days after treatment
measurement name: herbicidal rate, Chenopodium album

The compound listed as Cc1c(Cc2ccccc2N(C(=O)OCC(C)C)S(=O)(=O)C(F)(F)F)c(=O)on1C(C)c1ccccc1 (centres unmarked) [Compound 1-678] has a reported herbicidal rate, Chenopodium album of 90%

The compound listed as Cc1c(Cc2ccccc2N(C(=O)c2ccccc2)S(=O)(=O)C(F)(F)F)c(=O)on1C(C)C [Compound 1-472] has a reported herbicidal rate, Chenopodium album of 50%

The compound listed as Cc1c(Cc2ccccc2NS(=O)(=O)C(F)(F)F)c(=O)on1CCOCC(C)C [Compound 1-156] has a reported herbicidal rate, Chenopodium album of 60%

The compound listed as C=CCOC(=O)N(c1ccccc1Cc1c(C)n(C(C)c2ccccc2)oc1=O)S(=O)(=O)C(F)(F)F (centres unmarked) [Compound 1-710] has a reported herbicidal rate, Chenopodium album of 90%

The compound listed as CCS(=O)(=O)N(c1ccccc1Cc1c(C)n(C(C)c2ccccc2)oc1=O)S(=O)(=O)C(F)(F)F (centres unmarked) [Compound 1-917] has a reported herbicidal rate, Chenopodium album of 90%

The compound listed as Cc1c(Cc2ccccc2N(S(=O)(=O)C(F)(F)F)S(=O)(=O)C(F)(F)F)c(=O)on1C1CCCc2ccccc21 (centres unmarked) [Compound 1-1050] has a reported herbicidal rate, Chenopodium album of 90%

The compound listed as CCOC(=O)N(c1ccccc1Cc1c(C)n(CCSC)oc1=O)S(=O)(=O)C(F)(F)F [Compound 1-620] has a reported herbicidal rate, Chenopodium album of 90%

The compound listed as Cc1c(Cc2ccccc2N(C(=O)C2CC2)S(=O)(=O)C(F)(F)F)c(=O)on1C(C)(C)C [Compound 1-403] has a reported herbicidal rate, Chenopodium album of 90%

The compound listed as Cc1c(Cc2ccccc2N(C(=O)OCc2ccccc2)S(=O)(=O)C(F)(F)F)c(=O)on1C(C)(C)C [Compound 1-781] has a reported herbicidal rate, Chenopodium album of 90%

The compound listed as Cc1c(Cc2ccccc2N(S(=O)(=O)C(F)(F)F)S(=O)(=O)C(F)(F)F)c(=O)on1C(C)Cc1ccccc1 (centres unmarked) [Compound 1-1045] has a reported herbicidal rate, Chenopodium album of 40%

The compound listed as CCC(C)n1oc(=O)c(Cc2ccccc2N(C(=O)Oc2ccccc2)S(=O)(=O)C(F)(F)F)c1C (centres unmarked) [Compound 1-763] has a reported herbicidal rate, Chenopodium album of 90%

The compound listed as CCC(c1ccccc1)n1oc(=O)c(Cc2ccccc2NS(=O)(=O)C(F)(F)F)c1C (centres unmarked) [Compound 1-211] has a reported herbicidal rate, Chenopodium album of 0%

The compound listed as CCC(C)Cn1oc(=O)c(Cc2ccccc2N(C(=O)OCc2ccccc2)S(=O)(=O)C(F)(F)F)c1C (single isomer, unassigned) [1-789 (TLC bottom)] has a reported herbicidal rate, Chenopodium album of 80%

The compound listed as CCC(C)CCn1oc(=O)c(Cc2ccccc2NS(=O)(=O)C(F)(F)F)c1C (centres unmarked) [Compound 1-124] has a reported herbicidal rate, Chenopodium album of 50%

The compound listed as COCC(C)n1oc(=O)c(Cc2ccccc2N(C(=O)Cc2ccccc2)S(=O)(=O)C(F)(F)F)c1C (centres unmarked) [Compound 1-506] has a reported herbicidal rate, Chenopodium album of 90%

The compound listed as CCS(=O)(=O)N(c1ccccc1Cc1c(C)n(C(C)COC)oc1=O)S(=O)(=O)C(F)(F)F (centres unmarked) [Compound 1-915] has a reported herbicidal rate, Chenopodium album of 90%

The compound listed as CCC(C)Cn1oc(=O)c(Cc2ccccc2N(S(=O)(=O)C(F)(F)F)S(=O)(=O)C(F)(F)F)c1C (centres unmarked) [Compound 1-972] has a reported herbicidal rate, Chenopodium album of 100%

The compound listed as CCCCC(C)n1oc(=O)c(Cc2ccccc2NS(=O)(=O)C(F)(F)F)c1C (centres unmarked) [Compound 1-120] has a reported herbicidal rate, Chenopodium album of 50%

The compound listed as CCC(c1ccccc1)n1oc(=O)c(Cc2ccccc2N(S(=O)(=O)C(F)(F)F)S(=O)(=O)C(F)(F)F)c1C (centres unmarked) [Compound 1-1038] has a reported herbicidal rate, Chenopodium album of 0%

The compound listed as CCC(C)Cn1oc(=O)c(Cc2ccccc2N(S(C)(=O)=O)S(=O)(=O)C(F)(F)F)c1C (centres unmarked) [Compound 1-895] has a reported herbicidal rate, Chenopodium album of 50%

The compound listed as Cc1c(Cc2ccccc2N(C(=O)OCc2ccccc2)S(=O)(=O)C(F)(F)F)c(=O)on1CC(C)C [Compound 1-785] has a reported herbicidal rate, Chenopodium album of 90%

The compound listed as Cc1c(Cc2ccccc2N(S(=O)(=O)C(F)(F)F)S(=O)(=O)C(F)(F)F)c(=O)on1CCOCC(C)C [Compound 1-1000] has a reported herbicidal rate, Chenopodium album of 40%

The compound listed as Cc1c(Cc2ccccc2N(S(=O)(=O)C(F)(F)F)S(=O)(=O)C(F)(F)F)c(=O)on1S(=O)(=O)C(C)C [Compound 1-1064] has a reported herbicidal rate, Chenopodium album of 80%

The compound listed as Cc1c(Cc2ccccc2NS(=O)(=O)C(F)(F)F)c(=O)on1CC1(C)COC1 [Compound 1-229] has a reported herbicidal rate, Chenopodium album of 40%

The compound listed as Cc1c(Cc2ccccc2N(C(=O)OCC(C)C)S(=O)(=O)C(F)(F)F)c(=O)on1C(C)C [Compound 1-667] has a reported herbicidal rate, Chenopodium album of 90%

The compound listed as CCC(=O)N(c1ccccc1Cc1c(C)n(CC(C)(C)C)oc1=O)S(=O)(=O)C(F)(F)F [Compound 1-318] has a reported herbicidal rate, Chenopodium album of 90%

The compound listed as Cc1c(Cc2ccccc2N(S(=O)(=O)C(F)(F)F)S(=O)(=O)C(F)(F)F)c(=O)on1Cc1ccc(F)cc1 [Compound 1-1014] has a reported herbicidal rate, Chenopodium album of 40%

The compound listed as Cc1c(Cc2ccccc2NS(=O)(=O)C(F)(F)F)c(=O)on1CCOc1ccccc1 [Compound 1-237] has a reported herbicidal rate, Chenopodium album of 40%

The compound listed as CCC(=O)N(c1ccccc1Cc1c(C)n(C(C)COC)oc1=O)S(=O)(=O)C(F)(F)F (centres unmarked) [Compound 1-319] has a reported herbicidal rate, Chenopodium album of 90%
